System: KRAS G12V-dependent Ba/F3 cells
protocol.notes: Ba/F3 proliferation assay, KRAS G12V;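 further: proliferation IC50 in KRAS G12V-dependent Ba/F3 cells read by AlamarBlue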
Format: cell-based
condition.notes: Mus musculus, BaF3, 72 h, AlamarBlue
Record form. Attribute: log10(IC50). Fill in for each entry.
Scale: decimal log of IC50, IC50 in nM.

Item C[C@H](Oc1cc(-c2ccn(C3COC3)n2)nc(-c2noc3c2CCC[C@@]32CCCc3sc(N)c(C#N)c32)n1)[C@@H]1C[C@H](F)CN1C [II-83] has what recorded log10(IC50)?
1.26

Note, next up: C[C@H](Oc1cc(-n2cc3ccn([C@H]4CCOC4)c(=O)c3n2)nc(-c2noc3c2CCC[C@@]32CCCc3sc(N)c(C#N)c32)n1)[C@@H]1CCCN1C [II-202]
0.78

And the next one, CO[C@@H]1C[C@@H]([C@H](C)Oc2cc(N3CCN(C)C4(CC4)C3)nc(-c3onc4c3CCC[C@@]43CCCc4sc(N)c(C#N)c43)n2)N(C)C1 [I-50] ?
2.91

Cool, now C[C@H](Oc1cc(N2CCNC3(CC3)C2)nc(-c2onc3c2CCC[C@@]32CCCc3sc(N)c(C#N)c32)n1)[C@@H]1C[C@@H](F)CN1C [I-45]
2.66

Moving on to the next molecule: C[C@H](Oc1cc(-c2ccn(-c3ccccc3)n2)nc(-c2noc3c2CCC[C@@]32CCCc3sc(N)c(C#N)c32)n1)[C@@H]1CCCN1C [II-89]
1.26

Next entry: CO[C@@H]1C[C@@H]([C@H](C)Oc2cc(-c3cnn(C)n3)nc(-c3noc4c3CCC[C@@]43CCCc4sc(N)c(C#N)c43)n2)N(C)C1 [II-62]
1.23

Try the molecule COc1c(O[C@@H](C)[C@@H]2CCCN2C)nc(-c2noc3c2CCC[C@@]32CCCc3sc(N)c(C#N)c32)nc1-n1ccc(C(N)=O)n1 [II-159]
1.97

// query: COC(=O)c1ccc(-c2cc(O[C@@H](C)[C@@H]3CCCN3C)nc(-c3noc4c3CCC[C@@]43CCCc4sc(N)c(C#N)c43)n2)o1 [II-114]
0.85

Try this molecule next: C[C@H](Oc1cc(-c2ccn([C@H]3CCOC3)n2)nc(-c2noc3c2CCC[C@@]32CCCc3sc(N)c(C#N)c32)n1)[C@@H]1CCCN1C [II-127]
1.11

// query: C[C@H](Oc1cc(N2C[C@H](C)N[C@@H](C)C2)nc(-c2onc3c2CCC[C@@]32CCCc3sc(N)c(C#N)c32)n1)[C@@H]1CCCN1C [I-6]
2.50

Same question, C[C@H](Oc1cc(N2CCNC[C@@]23CCOC3)nc(-c2noc3c2CCC[C@@]32CCCc3sc(N)c(C#N)c32)n1)[C@@H]1CCCN1C [II-51] this time
2.84

Queued: CC(=O)N1CC=C(c2cc(O[C@@H](C)[C@@H]3CCCN3C)nc(-c3noc4c3CCC[C@@]43CCCc4sc(N)c(C#N)c43)n2)CC1 [II-81]
1.11

====

Exercise: state measured pIC50 for each of the compounds provided.
measured.on: KRAS (G13D)::SOS1 (Homo sapiens (Human), UniProt P01116, C118S/G13D)
Sequence (P01116 other isoform, or with tags, fused parts or gaps G13D/C118S): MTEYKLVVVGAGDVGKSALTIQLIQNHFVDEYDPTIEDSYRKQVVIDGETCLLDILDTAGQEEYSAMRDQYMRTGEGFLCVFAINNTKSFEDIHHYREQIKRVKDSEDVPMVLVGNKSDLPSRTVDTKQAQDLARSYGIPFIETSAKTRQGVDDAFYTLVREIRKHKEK
protocol.notes: KRAS::SOS1 AlphaScreen binding assay, KRAS G13D
Interpret pIC50 as the negative base-10 log of the concentration measured in mol/L.

Report pIC50 for C[C@H](Oc1cc(-n2ccc(C(=O)NC3(C)COC3)n2)nc(-c2noc3c2CCC[C@@]32CCCc3sc(N)c(C#N)c32)n1)[C@@H]1CCCN1C [II-26] please.
8.10

Same read-out for C[C@H](Oc1cc(-n2cncn2)nc(-c2noc3c2CCC[C@@]32CCCc3sc(N)c(C#N)c32)n1)[C@@H]1CCCN1C [II-70] ?
7.72

Repeat with C[C@H](Oc1cc(N2CCN(C)C3(CC3)C2)nc(-c2noc3c2CCC[C@@]32CCCc3sc(N)c(C#N)c32)n1)[C@@H]1CCCN1C [II-171]
7.19

# repeat for C[C@H](Oc1cc(-n2ccc(C(=O)N3CCCC3)n2)nc(-c2noc3c2CCC[C@@]32CCCc3sc(N)c(C#N)c32)n1)[C@@H]1CCCN1C [II-19]
8.05

// repeat for C[C@H](Oc1cc(N2CCNC3(CC3)C2)nc(-c2noc3c2CCC[C@@]32CCCc3sc(N)c(C#N)c32)n1)[C@@H]1C[C@@H](F)CN1C [II-165] and report
7.32

Query C[C@H](Oc1cc(N2CC[C@H](N(C)C)C2)nc(-c2noc3c2CCC[C@@]32CCCc3sc(N)c(C#N)c32)n1)[C@@H]1CCCN1C [II-49] next
6.76
